- Tested on: NCI-H460 lung
- Run Description: NCI-60 one-dose screen, 48 h (100 = growth as untreated, 0 = no growth, -100 = all killed)
- Condition Set: 10 µM unless noted
The panel holds about 83,000 compounds, 20% with a hit somewhere; the sample as a whole holds those more often.

- Compound: "CN(C)CCCC1(c2ccc(F)cc2)OCc2cc(-c3cncc4ccccc34)ccc21 (centres undefined)"
  Measured On: "NCI-H460 lung"
  growth / %: 10.6
- Compound: "O=C(CCCCCCN1CC(=O)N2[C@H](c3cc(Br)cs3)c3[nH]c4ccccc4c3C[C@H]2C1=O)NO"
  Measured On: "NCI-H460 lung"
  growth / %: 35.1
- Compound: "O=C1Nc2ccccc2[C@]12CC(c1ccccc1)=NN2"
  Measured On: "NCI-H460 lung"
  growth / %: 21.5
- Compound: "O=C1/C(=C/c2ccc(F)cc2)COc2ccc(O)c(O)c21"
  Measured On: "NCI-H460 lung"
  growth / %: 48.6
- Compound: "CCN(CC)C(=S)SC(SC(=S)N(CC)CC)C(=O)c1nnn(-c2ccc([N+](=O)[O-])cc2)c1C"
  Measured On: "NCI-H460 lung"
  growth / %: 73.9
- Compound: "COC1C[C@H](O[C@@H]2C[C@H](O[C@@H]3C[C@H](O[C@@H]4C(=O)c5c(cc6cc(O[C@H]7C[C@@H](O[C@H]8C[C@@H](O)[C@H](O)C(C)O8)[C@H](O)C(C)O7)c(C)c(O)c6c5O)C[C@H]4C(OC)C(=O)[C@@H](O)[C@@H](C)O)OC(C)[C@H]3O)OC(C)[C@@H]2O)OC(C)[C@@H]1O (some centres undefined)"
  Measured On: "NCI-H460 lung"
  growth / %: 6.26
- Compound: "O=C1/C(=C/c2cccs2)SC(=S)N1CCCN1CCOCC1"
  Measured On: "NCI-H460 lung"
  growth / %: 99
- Compound: "CCOC(=O)c1nc(Nc2ccc(NC(=O)Nc3ccc(F)cc3)cc2)c2ccccc2n1"
  Measured On: "NCI-H460 lung"
  growth / %: 99.1
- Compound: "C/C(=N/O)c1ccc(F)cc1"
  Measured On: "NCI-H460 lung"
  growth / %: 36.6
- Compound: "CCN1C(=O)N(CC)C2C1NN=c1s/c(=C\\c3ccc(Cl)cc3Cl)c(=O)n12 (centres undefined)"
  Measured On: "NCI-H460 lung"
  growth / %: 5.72
- Compound: "CC(=O)c1cc(O)c2ccccc2c1O"
  Measured On: "NCI-H460 lung"
  growth / %: 103
- Compound: "N#Cc1c(-c2cccs2)cc(-c2cccnc2)[nH]c1=O"
  Measured On: "NCI-H460 lung"
  growth / %: 110
- Compound: "CC1=C(CCC(C)N(C)Cc2ccc(OCCCN3CCCC3)cc2)C(C)(C)CCC1 (centres undefined)"
  Measured On: "NCI-H460 lung"
  growth / %: 5.81
- Compound: "O=C(Nn1c2c(sc1=Nc1ccccc1)C(=O)c1ccccc1C2=O)c1cc2ccc1CCc1ccc(cc1)CC2"
  Measured On: "NCI-H460 lung"
  growth / %: 71.9
- Compound: "CN(C)CCNc1nc2c3cc(Cl)ccc3nn2c2ccccc12"
  Measured On: "NCI-H460 lung"
  growth / %: 15.8
- Compound: "O=Nc1c(-c2c(O)[nH]c3ncccc23)[nH]c2ccccc12"
  Measured On: "NCI-H460 lung"
  growth / %: 52.2
- Compound: "Oc1c(Cl)cc(Cl)cc1/C=N/Nc1nnc(N/N=C/c2cc(Cl)cc(Cl)c2O)c2ccccc12"
  Measured On: "NCI-H460 lung"
  growth / %: 0.0293
- Compound: "Cc1cccc2c1NC(=O)C2(c1ccc(O)cc1)c1ccc(O)cc1"
  Measured On: "NCI-H460 lung"
  growth / %: 103
- Compound: "COc1cc(NC(C)CCCNC(C)C)c2ncccc2c1OC (centres undefined)"
  Measured On: "NCI-H460 lung"
  growth / %: 98.6
- Compound: "COC(=O)c1ccc2c(c1)C(=O)c1c-2n(CCCN)c(=O)c2cc([N+](=O)[O-])ccc12"
  Measured On: "NCI-H460 lung"
  growth / %: -100
- Compound: "c1cc2[nH]ncc2cc1-c1nc2ccc3[nH]ncc3c2c2c1CCCC2"
  Measured On: "NCI-H460 lung"
  growth / %: 13.6
- Compound: "CC(C)=NNc1ccccn1"
  Measured On: "NCI-H460 lung"
  growth / %: 30
- Compound: "O=C(CN1C(=O)CCC1=O)Nc1ncc(Cc2ccc(F)cc2)s1"
  Measured On: "NCI-H460 lung"
  growth / %: 106
- Compound: "COc1ccc(C(c2cc(OC)c(OC)c(OC)c2)N2CCN(c3ccccc3)CC2)cc1 (centres undefined)"
  Measured On: "NCI-H460 lung"
  growth / %: 96.9
- Compound: "CC(=O)OC[C@]12CCC(C)(C)C[C@H]1[C@@]1(O)[C@H](O)C[C@@H]3[C@@]4(C)CCCNC(C)(C)[C@@H]4CC[C@@]3(C)[C@]1(C)CC2"
  Measured On: "NCI-H460 lung"
  growth / %: 110
- Compound: "CC(C)(C)c1cc(-c2nc3ccc(N4CCN(S(C)(=O)=O)CC4)cc3[nH]2)cc(C(C)(C)C)c1O"
  Measured On: "NCI-H460 lung"
  growth / %: 90.6
- Compound: "N#CCSc1nnc2n(Cc3ccccc3)c(=O)c3c4c(sc3n12)CCCC4"
  Measured On: "NCI-H460 lung"
  growth / %: 108
- Compound: "CCS/C(Nc1ccccc1)=C(\\C#N)C(=O)N/N=C/c1ccc(Cl)cc1Cl"
  Measured On: "NCI-H460 lung"
  growth / %: 8.05
- Compound: "O=C(COc1ccc(-c2nc3ccccc3[nH]2)cc1)N=Nc1c(O)[nH]c2ccc(Cl)cc12"
  Measured On: "NCI-H460 lung"
  growth / %: 30.7
- Compound: "CCc1n(Cc2ccc3ccccc3c2)cc[n+]1Cc1ccc2ccccc2c1"
  Measured On: "NCI-H460 lung"
  growth / %: 5.54
- Compound: "CC/C(=C(/c1ccc(Cl)cc1)c1ccc(OCCN2CCCC2)cc1)c1ccc(OC)cc1"
  Measured On: "NCI-H460 lung"
  growth / %: 37.6
- Compound: "Clc1ccc(CNc2c3ccccc3nc3ccccc23)cc1"
  Measured On: "NCI-H460 lung"
  growth / %: 16.4
- Compound: "CC1(c2ccccc2O)NN=C(/N=C/c2cccc([N+](=O)[O-])c2)N1C(Cc1c[nH]c2ccccc12)C(=O)O (centres undefined)"
  Measured On: "NCI-H460 lung"
  growth / %: 102
- Compound: "N=C(N)c1ccc(-c2ccc(-c3ccc(F)cc3)o2)o1"
  Measured On: "NCI-H460 lung"
  growth / %: -13.7
- Compound: "Cc1cnc(C(=O)NNc2nc3sc4c(c3c(=O)n2C)C(C)CCC4)cn1 (centres undefined)"
  Measured On: "NCI-H460 lung"
  growth / %: 4.18
- Compound: "Cc1cccnc1NC(=S)Nc1ncccc1C"
  Measured On: "NCI-H460 lung"
  growth / %: 107
- Compound: "COc1ccc(-c2nc3c(c(-c4ccccc4)nn3-c3ccccc3)c(-c3ccc(N4CCOCC4)cc3)c2C#N)cc1"
  Measured On: "NCI-H460 lung"
  growth / %: 97.4
- Compound: "O=C1N[C@@H]2NC(=[N+]3CCOCC3)N[C@@H]2N1"
  Measured On: "NCI-H460 lung"
  growth / %: 104
- Compound: "O=C1/C(=C/c2ccc(Cl)cc2)COc2ccc(O)c(O)c21"
  Measured On: "NCI-H460 lung"
  growth / %: 31.1
